Hello, the source for this data is patent US20150167004, in case you need it.

target: DNMT3B (DNMT3b1) (Homo sapiens, UniProt Q9UBC3 Q9UBC3:1-853); assay: inhibition; 25 nM DNMT3B, lambda DNA substrate, 1 uM SAM
measurement-label: IC50 (µM)
Answers are plain numbers, in µM.

[ask] // query IC50 value for entry CCTATGCGATCGAGTTTTCTCGATCGCATAGG (structured_DNA, 5-aza-5,6-dihydro-dC at 21 and 25; phosphodiester [21, 25 (5-aza-5,6-dihydro-dC)]) [MTC-422]
[reply] 21.3
